Test: Solubility Assay (modified shake flask method)
Format: physicochemical
Details: aqueous sample containing 1% DMSO, aqueous buffer, kinetic from dmso stock; pH 7.4; starting conc. 16 μg/mL (with 1% DMSO); read-out: Solubility pH 7.4
Property Measured: solubility (µg/mL)

• Cc1ccc(-n2nc(C(C)(C)CO)cc2NC(=O)NCc2cc(F)ccc2Oc2ccc3c(cnn3CCO)c2)cc1 = 0.7

* * *

Assay: Solubility Assay (modified shake flask method)
Assay type: physicochemical
Conditions: aqueous sample containing 1% DMSO, aqueous buffer, kinetic from dmso stock; pH 6.5; starting conc. 16 μg/mL (with 1% DMSO); read-out: Solubility pH 6.5
Description: The solubility of each of the compounds of Examples 1 and 2 were tested at pHs 1.2, 6.5 and 7.4 using a modified shake flask method. The compounds were received as 1.6 mg/mL stock solutions in DMSO. […] The aqueous samples were quantitated against organic standards prepared in MeOH (with 1% DMSO in the high standard (16 μg/mL). UV 220 nm and UV 254 nm area were used for quantitation.
Property Measured: solubility (µg/mL)

- Cc1ccc(-n2nc(C(C)(C)CO)cc2NC(=O)NCc2cc(F)ccc2Oc2ccc3c(cnn3CCO)c2)cc1 [Example 1]: 0.75

* * *

Experiment: Solubility Assay (modified shake flask method)
Format: physicochemical
Conditions: aqueous sample containing 2% DMSO, simulated gastric fluid, kinetic from dmso stock; pH 1.2; starting conc. 32 μg/mL (with 2% DMSO); read-out: Solubility pH 1.2
Property Measured: solubility (µg/mL)

- Cc1ccc(-n2nc(C(C)(C)CO)cc2NC(=O)NCc2cc(F)ccc2Oc2ccc3c(cnn3CCO)c2)cc1: 18.8
